Each recorded value in this set is attributed to ChEMBL document CHEMBL3091402.

Test system: Liver microsome
Test: Intrinsic clearance in rat liver microsomes
Assay type: ADME
observationType: CLH (mL/min/g)

compound: O=C1CCCN1c1ccc(Oc2ccc3c(c2)CCN(C2CCC2)CC3)nc1 [GSK239512]
system: Liver microsome
CLH / mL/min/g: 1.6

1 = CNC(=O)c1ccc(Oc2ccc3c(c2)CCN(C2CCC2)CC3)nc1 [GSK189254]
2 = CNC(=O)c1cnc(Oc2ccc3c(c2)CCN(C2CCC2)CC3)cn1
From the items above, decide which of 1 and 2 has the lower CLH reading. Indicate which entry you chose by stating its label.
1

---

Assay: Ratio of drug level in brain to blood in human
Assay type: ADME, tissue-based
observationType: Kp
// return just the number, without any unit appended

What measured Kp goes with O=C1CCCN1c1ccc(Oc2ccc3c(c2)CCN(C2CCC2)CC3)nc1 ?
1.83
